In this section, each of the binders is paired with its reported pIC50.
Target: T1, Cynomolgus macaques TSLP recombinant protein (Cynomolgus macaques, UniProt Q969D9 29-159 (human entry), limits assumed, biotinylated in the blocking assays (sites not given))
T1 construct: also called cyTSLP; biotinylated Cynomolgus macaques TSLP protein
T1 chain: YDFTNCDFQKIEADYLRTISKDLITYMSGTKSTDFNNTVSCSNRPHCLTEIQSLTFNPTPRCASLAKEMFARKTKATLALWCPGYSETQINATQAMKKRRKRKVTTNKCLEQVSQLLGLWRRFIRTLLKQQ
Assay: competition ELISA, biotin-cynomolgus TSLP to coated cynomolgus TSLPR-Fc
Expect pIC50 as a plain number equal to -log10 of the molar concentration.

binder	pIC50
Ab2 (antibody, V domains shown, Humanized; also called h39G5VHv2/h39G5VKv1) VH: QVQLVQSGAEVKKPGSSVKVSCKASGYSFISYWIHWVRQAPGQGLEWMGIIDPSDSDTSLNQKFQGRVTITADESTSTAYMELSSLRSEDTAVYYCARSLDGYYDYWGQGTLVTVSS VL: DIQMTQSPSSLSASVGDRVTITCRASENIYSYLAWYQQKPGKAPKLLIYNARTLPEGVPSRFSGSGSGTDFTLTISSLQPEDFATYYCQHHYTTPWTFGQGTKVEIK	8.96
Ab4 (antibody, V domains shown, Humanized; also called h39G5VHv4/h39G5VKv1) VH: EVQLVQSGAEVKKPGESLRISCKASGYSFISYWIHWVRQMPGKGLEWMGIIDPSDSDTSLNQSFQGHVTISADKSISTAYLQWSSLKASDTAMYYCARSLDGYYDYWGQGTLVTVSS VL: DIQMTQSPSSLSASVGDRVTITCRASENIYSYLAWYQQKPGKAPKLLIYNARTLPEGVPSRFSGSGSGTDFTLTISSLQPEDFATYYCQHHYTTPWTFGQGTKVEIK	9.37

Per the records, this binder ( Ab3 (antibody, V domains shown, Humanized; also called h39G5VHv3/h39G5VKv1) VH: EVQLVQSGAEVKKPGESLRISCKASGYSFISYWIHWVRQMPGKGLEWMGIIDPSDSDTSLNQSFQGHVTLSVDKSSTTAYLQWSSLKASDTAMYYCARSLDGYYDYWGQGTLVTVSS VL: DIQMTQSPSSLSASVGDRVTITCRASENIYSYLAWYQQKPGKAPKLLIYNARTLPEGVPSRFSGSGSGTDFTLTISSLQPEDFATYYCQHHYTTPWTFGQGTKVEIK ) has pIC50 equal to 9.21

Hello, the source for this data is patent US20230029835A1, in case you need it.
